Ref: the NIST ThermoML archive (doi:10.1021/acs.jced.6b00542)

- measurement context: 363.15 K; 102 kPa; Liquid; Vibrating tube method
Rule: mass density of 700 kg/m3 or more gives 1 (yes); anything lower gives 0 (no).

CCCCCCCCCCCCCCCC [hexadecane]
1 (yes)
CCCCCCCCCCCCCCCCC [heptadecane]
1 (yes)
CCCCc1ccccc1 [butylbenzene]
1 (yes)

Okay, next one:
Could you verify whether the entry CCCCCCCCCC [decane] shows mass density of no less than 700 kg/m3?
0 (no)

----------
Reported values of speed of sound for individual entries
- measurement context: 313.15 K; 100 kPa; Liquid; Frequency=3 MHz; Sing-around technique in a fixed-path interferometer
Reply numerically in m/s, unit not repeated.

Please review the entries below; each comes with its answer.
CCCCCCCCCCCC
1221.9
CCCCCCCCCCCCCCCC
1283.4
CCCCCCCCCCCCCC
1256.4
CCCCCCCCCC
1175.7
CCCCCCCCCCCCCCCCC
1294.5

Check the records and state speed of sound for CCCCc1ccccc1
1276.6

----------
- measurement context: 293.15 K; 102 kPa; Liquid; Vibrating tube method
Rule: mass density of 800 kg/m3 or more gives Satisfied; anything lower gives Not satisfied.

The examples below pair each entry with its known result.
CCCCCCCCCCCCCCCC [hexadecane]
Not satisfied
CCCCCCCCCC [decane]
Not satisfied
CCCCCCCCCCCCCC [tetradecane]
Not satisfied
CCCCCCCCCCCC [dodecane]
Not satisfied

Could you verify whether the entry CCCCc1ccccc1 [butylbenzene] shows mass density of no less than 800 kg/m3?
Satisfied

----------
- measurement context: 303.15 K; 102 kPa; Liquid; Concentric cylinders viscometry
Consider the cut-off 1 mPa·s. If the recorded viscosity is strictly smaller, the label is label 1; if not, the label is label 0.

The examples below pair each entry with its known result.
CCCCCCCCCC
label 1
CCCCc1ccccc1
label 1
CCCCCCCCCCCC
label 0
CCCCCCCCCCCCCC
label 0
CCCCCCCCCCCCCCCC
label 0

# check: viscosity < 1 mPa·s for CCCCCCCCCCCCCCCCC
label 0

----------
Reported values of viscosity for individual entries
- measurement context: 343.15 K; 102 kPa; Liquid; Concentric cylinders viscometry
Reply numerically in mPa·s, unit not repeated.

Please review the entries below; each comes with its answer.
CCCCCCCCCCCCCCCCC
1.52
CCCCCCCCCCCC
0.706
CCCCc1ccccc1
0.571
CCCCCCCCCC
0.486
CCCCCCCCCCCCCC
0.98

Check the records and state viscosity for CCCCCCCCCCCCCCCC
1.32

----------
- measurement context: 373.15 K; 102 kPa; Liquid; Vibrating tube method
Rule: mass density of 700 kg/m3 or more gives yes; anything lower gives no.

The examples below pair each entry with its known result.
CCCCc1ccccc1
yes
CCCCCCCCCCCCCCCCC
yes

Could you verify whether the entry CCCCCCCCCC shows mass density of no less than 700 kg/m3?
no

----------
Reported values of mass density for individual entries
- measurement context: 323.15 K; 102 kPa; Liquid; Vibrating tube method
Reply numerically in kg/m3, unit not repeated.

CCCCCCCCCC
707.02

Check the records and state mass density for CCCCCCCCCCCCCCCC
752.74

Check the records and state mass density for CCCCCCCCCCCC
726.94

Check the records and state mass density for CCCCc1ccccc1
836.34

Check the records and state mass density for CCCCCCCCCCCCCCCCC
757.3

Check the records and state mass density for CCCCCCCCCCCCCC
741.5
